PROTOCOL_SUMMARY: chemical genetic growth profiling, strain panel (AID 1159580);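 further: tested at 20 µM; growth read once vehicle control cultures reached saturation at 30 °C; 1 = growth at the plate median or of vehicle wells; lower values mean less growth of the strain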
EXPERIMENTAL_SETUP: S. cerevisiae deletion strains, growth OD, locus YAL013W, strain DEP1
About 2,000 (36%) of roughly 5,500 compounds were called active. Another 18% or so got no clear call; they are omitted. No stated cut-off is given here; in the data, active means normalized growth mostly below about 0.91 (no sharp cut-off); inconclusive means no clear call, values can overlap the other calls; inactive means mostly above about 0.92. The list shows a part of the results.
Outcome codes: 1 (active), -1 (inactive)

{"columns": ["COMPOUND", "LABEL"],
 "data": [
  ["Cc1nc(C(F)(F)F)nc(Sc2n[nH]c(-c3cc(Cl)cc(Cl)c3)n2)c1C", -1],
  ["N[C@@H](Cc1cnc[nH]1)C(=O)O", -1],
  ["Cc1noc(C)c1C(=O)N1CCOCC1", -1],
  ["Oc1cc2c(cc1O)[C@H]1c3ccccc3CN[C@@H]1CC2", 1],
  ["COP(=O)(NC(C)=O)SC (stereo not given)", -1],
  ["Nc1nc(SCc2ccc([N+](=O)[O-])cc2)c2ncn([C@@H]3O[C@H](CO)[C@H](O)C3O)c2n1 (stereo not given in full)", -1],
  ["COc1ccc(NS(=O)(=O)c2ccc(N)cc2)nn1", -1],
  ["C=C[C@H]1CN2CC[C@H]1C[C@H]2[C@H](O)c1ccnc2ccccc12", -1],
  ["O=[N+]([O-])c1ccc(NCCCCCO)nc1", -1],
  ["Cn1c(Sc2ccc(C(F)(F)F)cc2[N+](=O)[O-])nnc1C(F)(F)F", -1],
  ["O=C1c2cccc(O)c2C(=O)c2c(O)cccc21", 1],
  ["Cc1c(NC(C)C)c(=O)n(-c2ccccc2)n1C", -1],
  ["ClC1C(Cl)C(Cl)C(Cl)C(Cl)C1Cl (stereo not given)", -1],
  ["CN1CCCCC1c1ccc(-c2cccnc2)nc1 (stereo not given)", -1],
  ["CC1=C(C)C(=O)C(CCCCC#CCCCC#CCO)=C(C)C1=O", -1],
  ["CC(NC(C)(C)C)C(=O)c1cccc(Cl)c1 (stereo not given)", -1],
  ["CC1CN=C(NC2CCCCC2)S1 (stereo not given)", -1],
  ["COc1cc(C2Nc3cccc4cccc(c34)N2)cc(OC)c1OC", -1],
  ["O=C(OCCNc1ccc([N+](=O)[O-])cn1)c1ccc([N+](=O)[O-])o1", 1],
  ["COc1cc2cccc(OC)c(=O)c2c(OC)c1OC", -1],
  ["CNC(=O)Oc1cccc2c1OC(C)(C)C2", -1],
  ["O[C@H]1[C@H](O)[C@@H](O)C2OC[C@H]1O2", -1],
  ["Cc1cc(O)c2c(c1)C(=O)c1cccc(O)c1C2=O", -1],
  ["COC(=O)c1cc(OC)c(OC)cc1NC(=O)Nc1cc(Cl)cc(Cl)c1", -1],
  ["CCCC(=O)Nc1ccc(OCC(O)CNC(C)C)c(C(C)=O)c1 (stereo not given)", -1]
]}
